Give Windgrass plant response rating for every item shown.
tested on: windgrass (Apera spica-venti); assay: Test C postemergence, plant response rating; assay type: in vivo; conditions: 125 g ai/ha, scale 0 to 100 (0 no effect, 100 complete control)
Give the figure only, with no unit attached.

Report Windgrass plant response rating from windgrass (Apera spica-venti) testing of `FC(F)(F)CCCCc1c(Cl)cccc1Oc1ncc(Cl)cn1`
45

Print windgrass (Apera spica-venti) Windgrass plant response rating for `CCCCC(=O)c1c(Oc2ncc(Cl)cn2)cccc1C(F)(F)F` .
35

Fetch value of Windgrass plant response rating on windgrass (Apera spica-venti) for `FC(F)(F)CCCCc1c(Br)cccc1Oc1ncc(Cl)cn1` .
50

# return Windgrass plant response rating of N#CC(CCCC(F)(F)F)c1ccccc1Oc1ncc(Cl)cn1 (stereo not shown) (system: windgrass (Apera spica-venti))
30

* * *

Give Blackgrass plant response rating (0 to 100 scale) for every item shown.
system: blackgrass (Alopecurus myosuroides); test: Test A postemergence, visual injury rating; type: in vivo; settings: 125 g ai/ha, 0 is no effect, 100 is complete control
// no unit, no text: just the number

Note Blackgrass plant response rating (0 to 100 scale) for the compound shown: `FC(F)(F)C(F)(F)COCc1c(Br)cccc1Oc1ncc(Cl)cn1`
0

Fill in Blackgrass plant response rating (0 to 100 scale) for record `O=C(OCC(F)(F)C(F)(F)F)c1c(F)cccc1Oc1ncc(Br)cn1`
0

Answer with the recorded Blackgrass plant response rating (0 to 100 scale) of `O=C(CCCCC(F)(F)F)c1c(Br)cccc1Oc1ncc(Cl)cn1` only.
40

Report Blackgrass plant response rating (0 to 100 scale) for `O=C(OCC(F)(F)F)c1c(F)cccc1Oc1ncc(Cl)cn1`
0

Give me measured Blackgrass plant response rating (0 to 100 scale), please, for this compound: `O=C(OCCC(F)(F)F)c1ccccc1Oc1ncc(Cl)cn1`
0

Identify Blackgrass plant response rating (0 to 100 scale) associated with the compound C=CC(C)COC(=O)c1c(Br)cccc1Oc1ncc(Cl)cn1 (stereo not drawn)
30

Note Blackgrass plant response rating (0 to 100 scale) for the compound shown: `O=C(CCCC(F)(F)F)c1c(Br)cccc1Oc1ncc(Cl)cn1`
50

Supply Blackgrass plant response rating (0 to 100 scale) value. Item: `CN(OCC(F)(F)F)C(=O)c1c(Br)cccc1Oc1ncc(Cl)cn1`
0

Provide measured Blackgrass plant response rating (0 to 100 scale) value, entry: `CC(C)=CCOC(=O)c1c(Br)cccc1Oc1ncc(Cl)cn1`
0

* * *

test system: soybean (Glycine max); test: Test C preemergence, plant response rating; type: in vivo; conditions: Preemergence, 125 g ai/ha; scale of 0 to 100
Task for the reader: assign each of the following compounds its reported Plant response rating, Soybean.

Please tell me the measured Plant response rating, Soybean for `O=C(CCCCC(F)(F)F)c1c(Br)cccc1Oc1ncc(Cl)cn1` ; system: soybean (Glycine max).
0

Report measured Plant response rating, Soybean on soybean (Glycine max); entry: `C=C(Br)COC(=O)c1c(Br)cccc1Oc1ncc(Cl)cn1`
10

Supply Plant response rating, Soybean measured with soybean (Glycine max) for `O=C(OCCC(F)(F)F)c1c(Br)cccc1Oc1ncc(Br)cn1` .
30

Lab note: record Plant response rating, Soybean of `FC(F)(F)CCCc1c(Br)cccc1Oc1ncc(Cl)cn1` tested on soybean (Glycine max).
10

Give Plant response rating, Soybean for N#CC(CCCC(F)(F)F)c1ccccc1Oc1ncc(Cl)cn1 (stereo not shown) tested on soybean (Glycine max).
60

Supply Plant response rating, Soybean measured with soybean (Glycine max) for `CCCCC(=O)c1c(Oc2ncc(Cl)cn2)cccc1C(F)(F)F` .
30

Consider the compound `FC(F)(F)CCCCc1c(Br)cccc1Oc1ncc(Cl)cn1` tested on soybean (Glycine max); state its Plant response rating, Soybean.
5
